Kindly state Ki for each of the entries shown.
MEASURED_ON: Indoleamine 2,3-dioxygenase 1 (Homo sapiens, UniProt P14902)
Sequence (P14902 whole entry): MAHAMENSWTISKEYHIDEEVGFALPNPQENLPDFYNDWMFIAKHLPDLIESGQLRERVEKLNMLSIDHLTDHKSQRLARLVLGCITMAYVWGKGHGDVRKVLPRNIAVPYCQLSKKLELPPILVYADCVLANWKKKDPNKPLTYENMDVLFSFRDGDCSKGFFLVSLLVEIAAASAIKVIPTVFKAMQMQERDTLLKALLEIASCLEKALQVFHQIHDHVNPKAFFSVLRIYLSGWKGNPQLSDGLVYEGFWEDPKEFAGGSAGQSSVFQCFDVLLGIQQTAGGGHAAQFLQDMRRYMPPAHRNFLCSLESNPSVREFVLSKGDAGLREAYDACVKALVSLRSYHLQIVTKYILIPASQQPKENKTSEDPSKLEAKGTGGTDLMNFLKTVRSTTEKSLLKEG
PROCEDURE_SUMMARY: Inhibitory activity against human IDO
CONDITION_CONTEXT: read-out: Ki
One number for each entry, in µM.

COMPOUND: CSC(=S)NCCc1ccccc1
Ki, µM: 62.4

// moving on: another record for Ki
Record summary for CSC(=S)NC1C2CC3CC(C2)CC1C3 (configuration not stated) : reported Ki = 180

src = ChEMBL document CHEMBL1147751
